Reported inhibition values for a set of compounds
protocol details: HIF-2a reporter inhibitors, primary screen, luminescence, 786-0 RCC cells (AID 624352)
condition parameters: 786-0 RCC cells HIF-2a reporter, luciferase luminescence, overnight; at 18.8 µM; stronger effect = higher value
In all, about 360,000 compounds went through this assay and about 2,600 (0.72%) were called active. Only a selection was taken, and actives are over-represented in it overall.
Write the value in % as a bare number.

These solved cases illustrate the format of a correct answer.
compound: CCCc1cc(-c2n[nH]c(=S)n2CC)c2ccccc2n1
reported value: 25.6
--
compound: CC(C)(O)C1=C[N+](=O)CC=C1
reported value: -0.393
--
compound: CCc1ccccc1NC(=O)/C(=C/c1ccccc1)c1ccccc1
reported value: 2.55

INPUT: Return reported inhibition; argument: "O=C(CCc1nnc2ccc(NCc3ccco3)nn12)Nc1cc(F)ccc1F"
OUTPUT: -0.521

INPUT: Try this compound too: COc1cccc(CNC(=O)C2CCCN(c3ncnc4c3nc3n4CCCCC3)C2)c1 (centres undefined)
OUTPUT: 0.819

INPUT: Subsequent entry: "CCOC(=O)/C(=C\c1ccc([N+](=O)[O-])cc1)C(=O)c1cc(C(C)=O)c(Nc2ccccc2)s1"
OUTPUT: 8.67

INPUT: Could you do the same for COc1ccccc1/C=C/C(=O)NC1CC2CCC1C2 (centres undefined) , please?
OUTPUT: -129

INPUT: Another compound to look at: "CCN(CC)S(=O)(=O)c1cccc(-c2n[nH]c(=S)n2/N=C/c2ccc(C(=O)OC)cc2)c1"
OUTPUT: 20.2

INPUT: Try "O=C(COc1nsnc1N1CCOCC1)Nc1ccccc1Cl" next.
OUTPUT: -40.8

INPUT: Same lookup for O=C(Nc1ccccc1Cl)/C(Cl)=C(\Cl)S(=O)c1ccccc1 (centres undefined) , please.
OUTPUT: 95.4

INPUT: Try this compound too: "CCOC(=O)C(=Cc1ccccc1)C(=O)c1ccccc1"
OUTPUT: 86.9

---

protocol details: HIF-2a reporter inhibitors, primary screen, luminescence, 786-0 RCC cells (AID 624352)
condition parameters: 786-0 RCC cells HIF-2a reporter, luciferase luminescence, overnight; at 18.8 µM; stronger effect = higher value
About 2,600 (0.72%) of roughly 360,000 compounds were called active. The full list was thinned out, with actives kept by preference.
Reported inhibition values for a set of compounds
Answer with a number only, understood to be in %.

compound: Cc1ccc(N2CC(C(=O)N3CCC4(CC3)CC(=O)c3ccccc3O4)CC2=O)cc1C (configuration not stated)
inhibition, %: 2.59
--
compound: NS(=O)(=O)c1ccc(CNC(=O)c2ccc(Cl)cc2[N+](=O)[O-])cc1
inhibition, %: 2.46
--
compound: C[C@@H]1CN([C@@H](C)CO)C(=O)c2cccc(NS(=O)(=O)c3ccc(F)cc3)c2O[C@H]1CN(C)C(=O)NC1CCCCC1
inhibition, %: -10.3
--
compound: CCCNC(=O)C1(C)CCCN(Cc2c(C)nn(-c3ccccc3)c2C)C1 (configuration not stated)
inhibition, %: 6.85
--
compound: Nc1cccc(OCCCCCOc2cccc(N)c2)c1
inhibition, %: -55.8

INPUT: Quick one: inhibition for CC(Sc1nncn1C)C(=O)NCCC1=CCCCC1 (configuration not stated) ?
OUTPUT: 1.01

INPUT: Moving on to the next compound: "Cc1ccc(NC(=O)CCCNC(=O)c2ccc(Cl)cc2)cc1S(=O)(=O)N1CCOCC1"
OUTPUT: 5.62

INPUT: Follow-up item: "C[C@@H]1CN([C@H](C)CO)C(=O)CCCn2nncc2CO[C@@H]1CN(C)S(=O)(=O)c1cccc(C#N)c1"
OUTPUT: 13.2

INPUT: Check "O=C(/C=C/c1ccc([N+](=O)[O-])o1)NNC(=O)c1ccc(F)cc1" too.
OUTPUT: 30.1

INPUT: Another: CC(=O)Nc1ccc(NC(=O)C(C)OC(=O)c2ccccc2C(=O)c2ccc(Cl)c([N+](=O)[O-])c2)cc1 (configuration not stated)
OUTPUT: 19.2

INPUT: Then "CC(C)CCOc1ccc(C(=O)C[N+]2(C)CCOCC2)cc1" ?
OUTPUT: 12.3

INPUT: What do you have for CCN(Cc1ccccc1)C(=O)CN1C(=S)NC(C)(C)CC1C (configuration not stated) ?
OUTPUT: 4.59

---

protocol details: HIF-2a reporter inhibitors, primary screen, luminescence, 786-0 RCC cells (AID 624352)
condition parameters: 786-0 RCC cells HIF-2a reporter, luciferase luminescence, overnight; at 18.8 µM; stronger effect = higher value
Hit rate of the full screen: of about 360,000 compounds, about 2,600 (0.72%) were called active. Only a selection was taken, and actives are over-represented in it overall.
Catalogue of inhibition readings, one per entry.
Your answer is read as %, so omit the unit and give the number.

Recorded results for 3 compounds are shown here.
compound: Cc1nn(-c2ccccc2)c(=O)c2noc(C)c12
inhibition, %: 3.29

compound: O=C(CCl)Nc1ccc(Sc2ccc(NC(=O)CCl)cc2)cc1
inhibition, %: 58.1

compound: Cn1c(=O)c2sccc2n(Cc2ccc(Br)cc2)c1=O
inhibition, %: 13.3

INPUT: # get_value(readout='inhibition', item= "CCCNC(=O)c1ccccc1NC(=O)CSCc1ccc(OC)cc1" )
OUTPUT: 19

INPUT: Then this compound: CCCc1[nH]nc2c1C(C1CC=CCC1)C(C#N)=C(N)O2 (stereo not given)
OUTPUT: 52.3

INPUT: Same for "Cc1cc(NS(=O)(=O)c2ccc(NC(=S)NC(=O)c3ccc(F)cc3Cl)cc2)no1"
OUTPUT: 21.4

INPUT: Moving on to "Cc1ccc(CS(=O)(=O)c2ncc(Cl)c(C(=O)Nc3nnc(C)s3)n2)cc1"
OUTPUT: 94.4

INPUT: What about "Cc1cccc(NC(=O)c2nc(S(=O)(=O)Cc3ccccc3)ncc2Cl)c1" ?
OUTPUT: 86.7

INPUT: Same question for "COCCNC(=O)c1ccc2c(c1)ncn2-c1ccc(C)c(Cl)c1" please.
OUTPUT: -31.7

INPUT: Request: Cc1cccc(NC(=O)C2CCCN(C(=O)Nc3ccc(F)cc3)C2)c1C (stereo not given)
OUTPUT: 7.56

---

Measured inhibition by item
protocol details: HIF-2a reporter inhibitors, primary screen, luminescence, 786-0 RCC cells (AID 624352)
condition parameters: 786-0 RCC cells HIF-2a reporter, luciferase luminescence, overnight; at 18.8 µM; stronger effect = higher value
Screen size: about 360,000 compounds; about 2,600 (0.72%) were called active. The sample as a whole holds a higher share of actives than the screen did.
Respond numerically; units are % and should not be typed.

compound: O=C(Nc1ccc2c(c1)OCO2)C1CC(c2c(F)cccc2Cl)=NO1 (centres undefined)
inhibition (%): -228

INPUT: Param item = "Cc1cccc(OCCC(=O)Nc2cc(S(=O)(=O)N3CCCCC3)ccc2N2CCOCC2)c1" ; retrieve measured inhibition.
OUTPUT: -42.8

INPUT: Cc1ccc(CN(C(=O)c2sc3ccccc3c2Cl)C2CCS(=O)(=O)C2)cc1 (centres undefined) ?
OUTPUT: 32

INPUT: How about this compound: "Cc1ccc2nc(-c3ccccc3)c(CC3CCCCC3)n2c1"
OUTPUT: -173

INPUT: Try the compound CCC(C)Cn1c(O)cc2nn(-c3nc4ccccc4s3)c(=O)c-2c1C (centres undefined)
OUTPUT: 80.9

---

protocol details: HIF-2a reporter inhibitors, primary screen, luminescence, 786-0 RCC cells (AID 624352)
condition parameters: 786-0 RCC cells HIF-2a reporter, luciferase luminescence, overnight; at 18.8 µM; stronger effect = higher value
Hit rate of the full screen: of about 360,000 compounds, about 2,600 (0.72%) were called active. The list comes from a sample in which actives are over-represented; it also holds close analogues and randomly drawn compounds.
Quick reference for inhibition among some compounds
Give the value, in units of %, as a plain number.

Example cases with answers are listed next.
compound: Cc1ccc(CNC(=O)c2cccnc2Cl)cc1
reported value: 2.18
//
compound: CCSc1sc(CC)cc1C=O
reported value: 18.8
//
compound: CCOC(=O)c1[nH]c(C)c(C(=O)OCC(=O)N2c3ccccc3CC2C)c1C (stereo not given)
reported value: 2.58
//
compound: COc1ccc(S(=O)(=O)N2CCN(C(=O)NC3CCCCC3)CC2)cc1
reported value: 12.4
//
compound: Cc1cc(Cl)c(S(=O)(=O)N(C)C)cc1OCC(N)=O
reported value: 7

INPUT: # inhibition lookup, item "COc1ccc(CNc2c(CO)cnc3c2cnn3C)cc1"
OUTPUT: 17.6

INPUT: Follow-up item: "O=C1C=CC(=O)N1c1ccc(N2CCCCC2)cc1"
OUTPUT: 69.5

INPUT: And the next one, "O=C(CNC(=O)OCc1ccccc1)Oc1cc2oc(=O)cc(-c3ccccc3)c2cc1Cl" ?
OUTPUT: -13.9

INPUT: Same question for "COCCNC(=S)Nc1cc(S(=O)(=O)N2CCOCC2)ccc1N1CCCCC1" please.
OUTPUT: 11.9

INPUT: Now consider "Cc1cc(Cl)c(S(=O)(=O)NCCC(=O)O)cc1OCC(N)=O" and answer again.
OUTPUT: 0.473
